Molecular target: T1, CRF2R
T1 sequence (Q13324 whole entry, species assumed, looked up): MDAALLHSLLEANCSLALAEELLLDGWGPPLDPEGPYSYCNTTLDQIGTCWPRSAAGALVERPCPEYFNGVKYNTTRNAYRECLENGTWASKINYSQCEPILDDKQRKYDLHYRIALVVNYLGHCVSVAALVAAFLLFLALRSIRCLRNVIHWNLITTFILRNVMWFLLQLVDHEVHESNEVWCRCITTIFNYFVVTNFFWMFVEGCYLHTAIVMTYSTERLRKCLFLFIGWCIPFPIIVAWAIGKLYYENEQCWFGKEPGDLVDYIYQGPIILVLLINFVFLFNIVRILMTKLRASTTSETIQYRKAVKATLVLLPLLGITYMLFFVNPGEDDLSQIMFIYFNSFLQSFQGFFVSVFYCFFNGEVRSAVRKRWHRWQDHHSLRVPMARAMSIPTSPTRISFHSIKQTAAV
Experiment: cell-based or functional assay
Ends that are not written are not given here.
measured quantity: CRF2R EC50 (nM)
Answers are plain numbers, in nM.

# binder, CRF2R EC50 [nM]
rows = [
    ("IVLSLDVPIGLLQILLEQEKQEAAREQATTNARILARV-NH2 [SEQ ID NO 125]", 4.47),
    ("IVLSLDVPIGLLQILLEQRARAAREQATTNARILARV-NH2 [SEQ ID NO 137]", 36.9),
    ("ZGPPISIDLPFQLLRKMIEIEKQEKEKQQATTNRLLLDRV (C-terminal amide) [SEQ ID NO 18]", 5.29),
    ("ZGPPISIDLPFYLLRKMIEIEKQEKEKQQATTNARILARV (C-terminal amide) [SEQ ID NO 147]", 6.75),
    ("SQEIVLSLDVPIGLLREVLEMTKADQLAQQAHSNRKLLDIA-NH2 [SEQ ID NO 7]", 100),
]

For every listed record, write down its CRF2R EC50.
1. ZGPPISIDLSIGLLRKMIEIEKQEKEKQQAANNRLLLDTI (C-terminal amide) [SEQ ID NO 25]
2. ZGPPISIDLPYHLLRKMIEIEKQEKEKQQAANNRLLLDTI (C-terminal amide) [SEQ ID NO 208]
3. ZGPPISIDLPFQLLRKMIEIEKQEKEKQQATTNRLLLDTI (C-terminal amide) [SEQ ID NO 13]
4. DNPSLSIDLPLHLLRTLLELARTQSQRERAEQNAIIFASV-NH2 [SEQ ID NO 179]

Marked response:
1. 81
2. 5.6
3. 3.88
4. 10.2

Attribution: patent US20030148956A1
